test target: T1, CD45RO ECD (human)
T1 chain: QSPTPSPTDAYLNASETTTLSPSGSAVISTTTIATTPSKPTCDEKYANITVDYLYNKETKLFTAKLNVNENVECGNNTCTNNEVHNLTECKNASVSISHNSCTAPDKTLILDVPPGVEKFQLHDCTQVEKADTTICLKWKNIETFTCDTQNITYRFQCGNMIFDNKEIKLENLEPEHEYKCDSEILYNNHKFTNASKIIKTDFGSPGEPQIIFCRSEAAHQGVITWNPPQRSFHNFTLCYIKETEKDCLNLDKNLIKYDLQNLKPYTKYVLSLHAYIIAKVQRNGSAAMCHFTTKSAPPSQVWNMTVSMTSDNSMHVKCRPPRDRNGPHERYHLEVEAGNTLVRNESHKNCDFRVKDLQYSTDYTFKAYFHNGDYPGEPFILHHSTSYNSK
experiment notes: SPR
quantity kind: Kd
Give the number first and the unit second.

binder	quantity kind	test result
HAdV-D51 E3/49K (Fc fusion) LLESKVVKIPYGSTYVLVGPRDPPVQWFGGGDFTMFCNGSKTHLQNIRHTCNEQNLTLLSVGYGHRGDYYGFRHDNTGRKHYKVIIEAPPPVTRKPLSEIKYVNVTMGQNLTLSGPPGTPVTWHGEGHKLCEGKNVFYRELNHTCTEKDLILLFVNRTHNGPYIGYNKEGTDREHYEVSVLDLMPIAGQGLDSKNKEQKIPPKRKSKDKVQEVNFPTGTDQTLIGPPGQKIDWHVSSNDGQFKKLCETKDGKHSCHGRNITIFNISRADEGSYYGSSHDGSSHYKVTVYDKSSFGKAKIKIDPYTTKGTTTENYEFELQQGNDESDDQKQIPSTT	Kd	0.06 nM

Lookup result for HAdV-D24 E3/49K (Fc fusion) GIHIINATWWDNITLVGPSDTPVTWYDGKGLQFCDGSTVKNPQIRHTCNDQNLTLIHVNKTHERTYMGYRHDSKGKVDYKVTVIPPPPATVKPQPDPENVFVYMGNNVTLVGPPGIPVSWYYHNGTQFCDGDKIIHPEFNHTCDKQNLTLLFVNFTHDGGYLGFNYKGTQRIQYEVIVLDRFPNSGQMKIEEQSEETEQKHTEHNKAGQKQGIDTNQKKANNRQKPSQRPSRRRPTNTPETKQLTVSIGSNLTLVGPDGKVTWYDGDLKRPCEEQNYRLPHQCSAQNLTLINVTKSHEGTYYGTNDKDESKRYRVKVNTTNSQAVKINPYTRPTTPDQKHRFELQIENNANDEESKIPSTT ; measured Kd: 0.08 nM
